Molecular target: MDMX (Homo sapiens, UniProt O15151)
Construct: endogenous in cells; host or cells: WERI-Rb-1 (ATCC)
Sequence (O15151 whole entry): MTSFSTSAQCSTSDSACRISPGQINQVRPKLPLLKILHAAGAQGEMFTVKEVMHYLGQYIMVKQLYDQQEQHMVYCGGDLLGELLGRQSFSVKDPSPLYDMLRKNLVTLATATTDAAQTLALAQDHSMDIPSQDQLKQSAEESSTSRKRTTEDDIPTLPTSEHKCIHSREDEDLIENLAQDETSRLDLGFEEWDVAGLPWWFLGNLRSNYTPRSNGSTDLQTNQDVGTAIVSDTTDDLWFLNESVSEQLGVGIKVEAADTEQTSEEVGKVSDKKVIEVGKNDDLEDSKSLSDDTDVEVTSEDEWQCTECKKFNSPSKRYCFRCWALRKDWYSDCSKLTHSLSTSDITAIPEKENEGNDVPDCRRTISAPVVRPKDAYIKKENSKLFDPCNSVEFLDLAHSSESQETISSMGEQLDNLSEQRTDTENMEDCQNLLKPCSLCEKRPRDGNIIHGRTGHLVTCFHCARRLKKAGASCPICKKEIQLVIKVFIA
Assay: MDMX degradation by western blot
Assay type: cell-based
Details: 200 nM Nano-MP@PSI, 12-hour preincubation of inhibitor
Where a SMILES comes first, the peptide text is derived from it. The star is where a group is joined. Cbz = O=C(OCc1ccccc1)*
property_measured: Effect on MDMX degradation by Nano-MP@PSI

molecule | test_target | test_value
CCOC(=O)c1ccc(N2NC(=O)/C(=C/c3ccc([N+](=O)[O-])o3)C2=O)cc1 | MDMX (Homo sapiens, UniProt O15151) | totally inhibits
CC(C)C[C@@H](C=O)NC(=O)[C@H](CC(C)C)NC(=O)[C@H](CC(C)C)NC(=O)OCc1ccccc1 [MG132] (Cbz-Leu-Leu-Leu-aldehyde) | MDMX (Homo sapiens, UniProt O15151) | totally inhibits
